Here, each record is paired with measured gametocyte viability data.
- Tested on: Plasmodium falciparum NF54/iGP1_RE9H ulg8 stage V gametocytes
- assayText: gametocyte viability (luciferase signal relative to DMSO control) (% of DMSO control); higher = less gametocytocidal activity, active = 50 or less
- conditionsUsed: concentration: 10 µM; exposure time: 72 h
Where a name gives a salt, the structure may show the parent alone. The campaign covered roughly 1,300 compounds. About 40 (3%) showed activity. This excerpt belongs to a sample that is enriched for actives.

Use these answered entries as a reference point.
molecule: CN1[C@@H]2CC[C@H]1C[C@@H](OC1c3ccccc3CCc3ccccc31)C2 [Deptropine citrate]
gametocyte viability: 86.5 (inactive)
--
molecule: CN1CCC2(C)c3cc(O)ccc3N(C)C12 (single isomer, unassigned; (-)) [(-)-Eseroline fumarate salt]
gametocyte viability: 44.8 (active)
--
molecule: C[C@]12CCC(=O)C=C1C=C[C@@H]1[C@@H]2CC[C@@]2(C)[C@H]1CC[C@@]2(O)CCC(=O)O [Canrenoic acid potassium salt]
gametocyte viability: 82.3 (inactive)
--
molecule: CCCN1C[C@H](CSC)C[C@@H]2c3cccc4[nH]cc(c34)C[C@H]21 [Pergolide mesylate]
gametocyte viability: 82.3 (inactive)
--
molecule: CN1[C@@H]2CC[C@H]1C[C@@H](OC(=O)[C@H](CO)c1ccccc1)C2
gametocyte viability: 91.7 (inactive)

Next item in the queue.
[ask] // gametocyte viability lookup, key: C[C@]12CC[C@H](O)C[C@H]1CC[C@@H]1[C@@H]2C[C@@H](O)[C@]2(C)[C@@H](C3=CC(=O)OC3)CC[C@]12O
[reply] 72.3 (inactive)
